Quick reference: kon of the listed items.
# tested.on: T1, human CD33 (human, UniProt P20138 18-259, limits assumed)
# T1 construct: Human CD33 immobilized on the BLI sensor tip or the BIAcore C1 chip; also called Siglec-3
# measurement.notes: SPR (BIAcore), Fab over CD33 on C1 chip
Kindly provide the numeric value in M⁻¹ s⁻¹ only, without the unit symbol.

binder="AB-64.1.8 (antibody, V domains shown, Variant of AB-64.1) VH: QVQLVQSGAEVKKPGASVKISCKASGYTFTDYNLHWVRQAPGQGLEWIGFIYPSNQITGYAQKFQGRATLTVDNSASTAYMELSSLRSEDTAVYYCARSDVDYFDYWGQGTLLTVSS VL: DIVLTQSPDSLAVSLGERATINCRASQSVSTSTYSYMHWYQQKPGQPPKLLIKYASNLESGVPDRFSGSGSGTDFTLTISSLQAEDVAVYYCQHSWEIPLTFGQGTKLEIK" reading=3.62e+06
binder="AB-64.3 (antibody, V domains shown) VH: QVQLVQSGAEVKKPGASVKISCKASGYTFTDYNLHWVRQAPGQGLEWIGFIYPSNGITGYAEKFEGRATLTVDNSTSTAYMELSSLRSEDTAVYYCARSFVDYFDYWGQGTLLTVSS VL: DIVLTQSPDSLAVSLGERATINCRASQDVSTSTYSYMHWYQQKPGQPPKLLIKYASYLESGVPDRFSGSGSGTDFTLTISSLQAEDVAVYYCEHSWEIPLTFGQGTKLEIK" reading=4.98e+06

Looking up AB-64.1 (antibody, V domains shown) VH: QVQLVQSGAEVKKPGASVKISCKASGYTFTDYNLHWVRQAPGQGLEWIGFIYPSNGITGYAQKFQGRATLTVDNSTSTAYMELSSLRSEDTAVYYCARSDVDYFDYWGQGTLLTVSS VL: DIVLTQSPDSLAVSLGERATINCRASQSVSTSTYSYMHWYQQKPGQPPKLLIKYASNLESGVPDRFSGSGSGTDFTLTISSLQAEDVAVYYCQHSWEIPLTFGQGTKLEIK , I found its kon recorded as 4.61e+06
